biological target: LcrF (VirF) (Yersinia pestis, UniProt P28808); assay: biochemical
Sequence (P28808 whole entry, looked up): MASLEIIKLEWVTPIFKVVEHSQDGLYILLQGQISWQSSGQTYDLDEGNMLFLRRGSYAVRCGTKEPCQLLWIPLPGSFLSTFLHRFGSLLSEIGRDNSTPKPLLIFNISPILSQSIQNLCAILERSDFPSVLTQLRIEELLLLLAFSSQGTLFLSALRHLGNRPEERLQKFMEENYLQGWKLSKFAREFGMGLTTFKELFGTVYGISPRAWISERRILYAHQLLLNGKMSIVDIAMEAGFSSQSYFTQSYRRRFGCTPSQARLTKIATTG
endpoint: EC50

[
  {
    "query_smiles": "CN1CCN(CCOc2cc3nc(-c4ccc(NC(=O)/C=C/c5ccc(F)cc5)cc4)n(O)c3cc2[N+](=O)[O-])CC1",
    "measured_value": "< 10 µM"
  },
  {
    "query_smiles": "N#Cc1ccc2nc(-c3ccc(NC(=O)/C=C/c4ccccc4)cc3)n(O)c2c1",
    "measured_value": "10.1 to 25 µM"
  },
  {
    "query_smiles": "O=C(/C=C/c1ccc(F)c(CP(=O)(O)O)c1)Nc1ccc(-c2nc3ccc([N+](=O)[O-])cc3n2O)cc1",
    "measured_value": "10.1 to 25 µM"
  },
  {
    "query_smiles": "Cc1cc(C(=O)Nc2ccc(-c3nc4ccc([N+](=O)[O-])cc4n3O)cc2)ccc1F",
    "measured_value": "10.1 to 25 µM"
  },
  {
    "query_smiles": "Cc1cc2nc(-c3ccc(NC(=O)/C=C/c4ccc(F)cc4)cc3)n(O)c2cc1[N+](=O)[O-]",
    "measured_value": "< 10 µM"
  },
  {
    "query_smiles": "COc1cc(F)ccc1C(=O)Nc1ccc(-c2nc3ccc([N+](=O)[O-])cc3n2O)cc1",
    "measured_value": "< 10 µM"
  },
  {
    "query_smiles": "O=C(/C=C/c1ccc(F)cc1)Nc1ccc(-c2nc3ccc([N+](=O)[O-])cc3n2OCP(=O)(O)O)cc1",
    "measured_value": "< 10 µM"
  },
  {
    "query_smiles": "O=C(Nc1ccc(-c2nc3ccc([N+](=O)[O-])cc3n2O)cc1)c1ccccc1O",
    "measured_value": "10.1 to 25 µM"
  },
  {
    "query_smiles": "Cc1ccc(/C=C/C(=O)Nc2ccc(-c3nc4ccc(C#N)cc4n3O)cc2)cc1",
    "measured_value": "10.1 to 25 µM"
  },
  {
    "query_smiles": "O=C(Nc1ccc(-c2nc3ccc([N+](=O)[O-])cc3n2O)nc1)c1ccc(F)cc1",
    "measured_value": "> 25.1 µM"
  }
]

Which EC50 is reported with LcrF (VirF) (Yersinia pestis, UniProt P28808) for this entry: CCOP(=O)(Cc1cc(/C=C/C(=O)Nc2ccc(-c3nc4ccc([N+](=O)[O-])cc4n3O)cc2)ccc1F)OCC ?
< 10 µM

Follow-up item: CC(=O)c1ccc(C(=O)Nc2ccc(-c3nc4ncc([N+](=O)[O-])cc4n3O)cc2)cc1
10.1 to 25 µM
